test system: biotinyl-Leu-oxazolone; assay: self-aminoacylation, catalytic enhancement (BLO) (fold over background); higher = more active; k-Seq, kA / k0A0; sequences stand for … in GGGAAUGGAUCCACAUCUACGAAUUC…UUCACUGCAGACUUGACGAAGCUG
Variants at the floor of the assay were thinned out.
Property: self-aminoacylation
Numbers only.

Entry sequence	self-aminoacylation
CUACCUCAAACACUCGGUCUG [Fam1A.1 aminoacylation ribozyme variant]	1.31
AAGUAUGCUAAUCGUCGCAAG [Fam3.1 aminoacylation ribozyme variant]	1.37
AUUCACCUCGGUCAUCGGGGG [Fam2.2 aminoacylation ribozyme variant]	2.98

Quick one: give me self-aminoacylation for each item below, same order please.
1. CUACGUCGAACAAUCGGUCUG [Fam1A.1 aminoacylation ribozyme variant]
2. GCACCCUUCAAGCAAUCGGUC [Fam1B.1 aminoacylation ribozyme variant]
3. AUUACGCUGGUCUUCGAGUGA [Fam2.1 aminoacylation ribozyme variant]

A:
1.83
1.45
5.46

Quick one: give me self-aminoacylation for each item below, same order please.
1. CUACUCCAAACAAUCGGGCUG [Fam1A.1 aminoacylation ribozyme variant]
2. CUACUUCGAACAAUCUGUCUG [Fam1A.1 aminoacylation ribozyme variant]

A:
1.29
0.576
